# Test system: HepG2
# assay_explanation: GSK_TCMDC: Percent inhibition of human HepG2 cell line. Test compounds present at 10uM.
# Format: functional
Threshold 20%. Inhibition below it: Y. Inhibition at it or above: N.

# TODO verify Inhibition < 20% strictly for this compound: `CCOC(=O)c1ccc(NC(=O)NNC(=O)c2ccc(CCN3CCC(c4nc(COCC(F)(F)F)c(-c5ccc(F)cc5)o4)CC3)cc2)cc1`
Y

Please give the result for COc1ccc(C2CC(c3cccs3)=NN2C(=O)COc2cccc(C(C)=O)c2)cc1OC (stereo not drawn) too.
Y

Please give the result for `CC(C)c1cc2c(ccc3nc(N)nc(N)c32)[nH]1` too.
N

Please give the result for `COC(=O)c1ccc2nc(-c3ccc(C(=O)NCc4ccc(Cl)c(Cl)c4)cc3)[nH]c2c1` too.
Y

Please give the result for `COCCNC(=O)C1CCN(C(c2ccc(Cl)cc2)c2ccc(Cl)cc2)CC1` too.
Y

Please give the result for `CSc1ccc(NC(=O)Nc2cc(C)nc3ccccc23)cc1Br` too.
Y

Please give the result for `O=C(/C=C/c1ccc(Cl)c(Cl)c1)NCCCCCCN1CCCN(C(=O)Nc2cccc(C(F)(F)F)c2)CC1` too.
N

Please give the result for `CC(C)(CNC(=O)C1CCN(CC2CCCCC2)CC1)c1nc(-c2ccc(Cl)c(O)c2)c(-c2ccncc2)[nH]1.Cl` too.
Y

Please give the result for CCC(Nc1noc(-c2c(-c3ccccc3)noc2C)n1)c1ccccc1 (stereo not drawn) too.
Y

Please give the result for `COC(=O)c1ccc(C(=O)NCCCCN2CCC(c3ccc4c(c3OC)CCCC4)CC2)cc1-c1ccc(C(F)(F)F)cc1` too.
N

Please give the result for `Cc1nc(N)nc(N)c1OCCCOc1ccccc1Br.Cl` too.
N

Please give the result for O=C(/C=C/c1ccc(Cl)c(Cl)c1)NC1CCC(CN2CCC(Cc3c[nH]c4ccccc34)CC2)CC1 (stereo not drawn) too.
N

Please give the result for `CC(C)CCN1CCC(Oc2ccc(NC(=O)c3ccccc3)cc2Cl)CC1.O=C(O)C(F)(F)F` too.
Y

Please give the result for `N#Cc1cc(C(=O)c2cc(Cl)ccc2O)cn(-c2cccc(C(F)(F)F)c2)c1=O` too.
Y

Please give the result for `ON=C1CCc2cc(-c3cc(-c4ccc(OC5CCNCC5)cc4)oc3-c3ccncc3)ccc21` too.
N

Please give the result for `CCc1c(C)c(C#N)c2nc3ccccc3n2c1NCc1ccco1` too.
Y

Please give the result for COc1ccc(OCCCN2CCN(CC(c3ccc(F)cc3)N3CCN(C(C)C)CC3)CC2)c2ccccc12.O=C(O)C(F)(F)F (stereo not drawn) too.
N

Please give the result for `Cc1cc(N[C@@H](Cc2ccccc2)C(=O)Nc2ccccc2)nc(Nc2ccccc2)n1.O=C(O)C(F)(F)F` too.
Y

Please give the result for `FC(F)(F)Oc1cccc(CNc2noc(-c3sccc3Br)n2)c1` too.
Y

Please give the result for CCC(C)c1ccc(NC(=O)C(C)c2ccc([N+](=O)[O-])cc2)cc1 (stereo not drawn) too.
Y

Please give the result for `Cl.O=C(C=Cc1ccc(C(=O)Nc2ccc(C3=NCCN3)cc2)cc1)Nc1ccc(C2=NCCN2)cc1` too.
Y

Please give the result for `CS(=O)(=O)c1ccc(CCNCc2ccc(-c3ccc(CN(C(=O)c4ccco4)C4CCN(Cc5ccccc5)CC4)cc3)nc2)cc1.O=C(O)C(F)(F)F` too.
Y

Please give the result for `CN1CCN(c2cccc(-c3nnc(-c4ccc(OCC(=O)NCc5ccc(C(F)(F)F)cc5)c([N+](=O)[O-])c4)o3)c2)CC1` too.
N
